Task for the reader: assign each of the following molecules its reported inhibition.
target: Ribosomal protein S6 kinase alpha-2 (Homo sapiens);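 note: reported value is the mean percent inhibition of RSK3, from the GSK PKIS screening panel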
run_parameters: at 0.1 µM
One number for each entry, in %.

Answered examples (5):
COc1cc(/C=N/Nc2ncnc3[nH]ncc23)ccc1O :: 1.62
Cc1ccc2c(-c3ccnc(Nc4ccccc4)n3)c(-c3ccc(F)cc3)nn2n1 :: 2.02
CCn1c(-c2nonc2N)nc2ccccc21 :: 19.1
[O-][S+]1CCN(Cc2ccc(-c3ccc4ncnc(Nc5ccc(OCc6cccc(F)c6)c(Cl)c5)c4c3)o2)CC1 :: 3.09
NC(=O)c1sc(-n2cnc3ccc(C(F)(F)F)cc32)cc1OCc1ccccc1Br :: 0.97

For each listed entry, give its inhibition.
1. COc1cc2ncn(-c3cc(OCc4ccccc4C(F)(F)F)c(C(=O)N(C)C)s3)c2cc1OC
2. CCc1nn2ncccc2c1-c1ccnc(NC2CC2)n1
3. COc1ccc(-c2cc(-c3c[nH]nc3-c3ccccn3)ccn2)cc1
4. CNC(=O)c1cccc(C#Cc2cncnc2Nc2ccc(OCc3cccc(F)c3)c(Cl)c2)c1
5. COC(=O)c1sc(-n2cnc3cc(OC)c(OC)cc32)cc1OCc1ccccc1C(F)(F)F

-0.15
3.18
2.82
-0.63
1.77

* * *

target: Serine/threonine-protein kinase Nek9 (Homo sapiens) (UniProt Q8TD19);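 note: reported value is the mean percent inhibition of NEK9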
Sequence (Q8TD19 whole entry): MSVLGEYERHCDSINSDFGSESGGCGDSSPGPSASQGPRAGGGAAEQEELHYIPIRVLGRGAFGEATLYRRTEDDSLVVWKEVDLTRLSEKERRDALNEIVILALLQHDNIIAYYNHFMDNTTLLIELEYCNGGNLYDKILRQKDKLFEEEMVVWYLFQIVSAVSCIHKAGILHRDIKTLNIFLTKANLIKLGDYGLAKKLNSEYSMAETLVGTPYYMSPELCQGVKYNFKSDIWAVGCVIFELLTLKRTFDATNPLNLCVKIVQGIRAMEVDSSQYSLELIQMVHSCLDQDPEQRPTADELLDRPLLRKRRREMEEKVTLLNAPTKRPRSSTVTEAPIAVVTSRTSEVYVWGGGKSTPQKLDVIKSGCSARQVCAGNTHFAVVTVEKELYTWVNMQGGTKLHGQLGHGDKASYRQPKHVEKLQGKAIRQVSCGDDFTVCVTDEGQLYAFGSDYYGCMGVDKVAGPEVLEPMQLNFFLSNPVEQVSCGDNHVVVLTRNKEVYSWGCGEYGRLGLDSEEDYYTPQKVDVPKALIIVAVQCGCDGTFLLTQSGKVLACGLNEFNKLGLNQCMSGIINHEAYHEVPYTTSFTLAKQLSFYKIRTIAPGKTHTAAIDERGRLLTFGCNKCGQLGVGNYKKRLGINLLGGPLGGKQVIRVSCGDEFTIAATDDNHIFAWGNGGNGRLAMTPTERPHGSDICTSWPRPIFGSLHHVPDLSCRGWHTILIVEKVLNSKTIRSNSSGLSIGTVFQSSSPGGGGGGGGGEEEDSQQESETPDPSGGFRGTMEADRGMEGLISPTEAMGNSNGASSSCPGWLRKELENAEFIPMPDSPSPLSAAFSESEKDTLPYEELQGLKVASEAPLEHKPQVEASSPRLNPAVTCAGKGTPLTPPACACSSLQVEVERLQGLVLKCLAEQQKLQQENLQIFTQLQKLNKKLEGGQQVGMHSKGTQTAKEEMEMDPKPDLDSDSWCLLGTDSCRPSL
run_parameters: at 0.1 µM
readout_label: inhibition (%)
Numbers only, in %.

COc1cc2c(cc1Nc1nc(Nc3ccsc3C(N)=O)c3cc[nH]c3n1)N(C(=O)CN(C)C)CCC2(C)C :: 4.77
c1ccc(-c2nc3n(c2-c2ccc4c(c2)OCO4)CCC3)nc1 :: 4.73
CNC(=O)c1cc(-c2ccc(F)cc2)cc(-c2ccc(S(=O)(=O)N3CCCC3)cc2)c1N :: 5.37

For each listed entry, give its inhibition.
1. FC(F)(F)c1cccc(-c2nn3ncccc3c2-c2ccnc(Nc3ccc4c(c3)OCCO4)n2)c1
2. CC(C)COC(=O)c1ccc2c(c1)/C(=C/Nc1ccc(S(N)(=O)=O)cc1)C(=O)N2
3. COC(=O)c1sc(-n2cnc3cc(OC)c(OC)cc32)cc1OCc1ccccc1C(F)(F)F

[3.97, -3.08, 6.87]

For each listed entry, give its inhibition.
1. COc1cccc(-n2ncc3c(N/N=C/c4ccc(F)cc4)ncnc32)c1
2. N#Cc1c(NC(=O)CN2CCOCC2)sc2c1CCCC2
3. CCCN(CCS(C)(=O)=O)Cc1ccc(-c2ccc3ncnc(Nc4ccc(OCc5cccc(F)c5)c(Cl)c4)c3c2)o1
4. CCOc1ccc2c(-c3ccnc(Nc4cccc(C(F)(F)F)c4)n3)cnn2n1
5. COc1cc2ncn(-c3cc(OCc4ccccc4C(F)(F)F)c(C(=O)N(C)C)s3)c2cc1OC

1.55
6.26
6.94
7.49
0.62

For each listed entry, give its inhibition.
1. COc1cc(N2CCN(C(C)C)CC2)ccc1Nc1nc(Nc2ccc(F)cc2C(N)=O)c2cc[nH]c2n1
2. CC1=C(C(=O)Nc2cc(Cl)c3[nH]ncc3c2)C(c2ccc(C(F)(F)F)cc2)CC(=O)N1 (centres undefined)
3. CC(=O)Nc1cccc(C#Cc2cncnc2Nc2ccc(OCc3cccc(F)c3)c(Cl)c2)c1
4. [O-][S+]1CCN(Cc2ccc(-c3ccc4ncnc(Nc5ccc(OCc6cccc(F)c6)c(Cl)c5)c4c3)o2)CC1
5. Cc1ccc2c(-c3ccnc(Nc4ccccc4)n3)c(-c3ccc(F)cc3)nn2n1
6. Cc1cccc(Nc2ncc(-c3ccccc3)o2)c1
7. COc1cc(Nc2nccc(Nc3ccc4c(C)n[nH]c4c3)n2)cc(OC)c1OC

4.13
5.83
1.96
12.2
-1.05
8.57
0.16

Tell us which inhibition value is on record for c1cc(-c2cnn3nc(N4CCOCC4)ccc23)nc(NC2CC2)n1
-1.68

* * *

target: Tyrosine-protein kinase receptor TYRO3 (Homo sapiens) (UniProt Q06418)
Sequence (Q06418 whole entry): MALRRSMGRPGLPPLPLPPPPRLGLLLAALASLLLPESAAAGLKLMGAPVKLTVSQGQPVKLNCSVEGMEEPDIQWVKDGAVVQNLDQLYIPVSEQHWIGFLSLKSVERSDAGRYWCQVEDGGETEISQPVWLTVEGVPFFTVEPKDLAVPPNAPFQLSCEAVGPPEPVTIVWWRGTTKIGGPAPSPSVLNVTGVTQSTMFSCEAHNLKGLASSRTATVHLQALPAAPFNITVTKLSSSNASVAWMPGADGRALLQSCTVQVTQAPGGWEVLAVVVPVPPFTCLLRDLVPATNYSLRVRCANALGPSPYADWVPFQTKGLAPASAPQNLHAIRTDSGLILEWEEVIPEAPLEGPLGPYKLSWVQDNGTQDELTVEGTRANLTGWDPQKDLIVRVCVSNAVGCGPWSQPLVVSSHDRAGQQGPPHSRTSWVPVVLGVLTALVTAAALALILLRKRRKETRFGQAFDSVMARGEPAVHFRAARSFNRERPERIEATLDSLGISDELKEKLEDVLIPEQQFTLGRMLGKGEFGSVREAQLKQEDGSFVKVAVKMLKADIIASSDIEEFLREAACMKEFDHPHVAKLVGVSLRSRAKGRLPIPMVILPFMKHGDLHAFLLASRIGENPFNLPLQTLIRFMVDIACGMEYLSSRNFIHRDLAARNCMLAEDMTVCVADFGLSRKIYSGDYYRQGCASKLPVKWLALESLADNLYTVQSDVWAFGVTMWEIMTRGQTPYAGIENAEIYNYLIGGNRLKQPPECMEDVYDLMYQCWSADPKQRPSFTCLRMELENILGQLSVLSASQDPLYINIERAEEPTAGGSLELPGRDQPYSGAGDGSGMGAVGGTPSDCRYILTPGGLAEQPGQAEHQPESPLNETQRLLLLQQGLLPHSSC
run_parameters: at 1 µM
Description: GSK_PKIS: TYRO3 mean inhibition at 1 uM [Nanosyn]
Task for the reader: assign each of the following molecules its reported inhibition.
One number for each entry, in %.

Answered examples (5):
COc1ccc2c(-c3ccnc(Nc4cccc(OC(F)(F)F)c4)n3)cnn2n1 :: 7.73
Fc1ccc(-c2cc(-c3c[nH]nc3-c3ccccn3)ccn2)cc1 :: 5.06
c1ccc(COc2ccc(Nc3ncnc4ccc(-c5ccco5)cc34)cc2)cc1 :: 1.86
CCNC(=O)O[C@H]1CN[C@H](C#Cc2cc3ncnc(Nc4ccc(OCc5cccc(F)c5)c(Cl)c4)c3s2)C1 :: 1.4
Nc1nc(-c2cccc(Cl)c2)c(-c2ccc3ncccc3n2)s1 :: 5.98

For each listed entry, give its inhibition.
1. CN1CCC(n2cnc(-c3ccc(F)cc3)c2-c2ccnc(N)n2)CC1
2. Fc1cccc(COc2ccc(Nc3ncnc4sc(-c5ccco5)cc34)cc2Cl)c1
3. Nc1ncc(-c2cccc(S(N)(=O)=O)c2)c2scc(-c3ccc(F)c(Cl)c3)c12
4. c1cc(-c2cnn3nc(N4CCOCC4)ccc23)nc(NC2CC2)n1
5. NS(=O)(=O)c1ccc(Nc2ncc(-c3ccccc3)o2)cc1
6. CCCN(CCS(C)(=O)=O)Cc1ccc(-c2ccc3ncnc(Nc4ccc(OCc5cccc(F)c5)c(Cl)c4)c3c2)o1
7. N#Cc1c(NC(=O)c2ccc(F)cc2)sc2c1CCCC2

[7.48, 1.85, 25.1, 2.97, 4.49, 1.99, 2.87]

For each listed entry, give its inhibition.
1. CN(C)CCOc1ccc(-c2nc(-c3ccncc3)c(-c3ccc4c(c3)CC/C4=N\O)[nH]2)cc1
2. Cc1cccc(Nc2ncc(-c3ccccc3)o2)c1

1: 5.27; 2: 4.61

For each listed entry, give its inhibition.
1. COc1cccc(-n2ncc3c(N/N=C/c4ccc(F)cc4)ncnc32)c1
2. CCn1c(-c2nonc2N)nc2c(C#CC(C)(C)O)nc(OC[C@H](N)c3ccccc3)cc21
3. CCn1c(-c2nonc2N)nc2c(C#CC(C)(C)O)ncc(OC3CCNCC3)c21
4. COC(=O)c1sc(-n2cnc3cc(OC)c(OC)cc32)cc1OCc1ccccc1C(F)(F)F
5. CNC(=O)c1cncc(/C=C/c2ccccc2Cl)c1
6. CCN(CC)S(=O)(=O)c1ccc(OC)c(Nc2ncc(-c3ccccc3)o2)c1
7. Nc1nc(-c2ccc(F)cc2)c(-c2ccc3ncccc3n2)s1

9.33
1.88
2.44
2.68
2.53
45.8
2.87

For each listed entry, give its inhibition.
1. COC(=O)Nc1nc2ccc(S(=O)(=O)c3ccc(NC(=O)Nc4cc(C(F)(F)F)ccc4F)cc3)cc2[nH]1
2. CC1=C(C(=O)Nc2cc(Cl)c3[nH]ncc3c2)C(c2ccc(C(F)(F)F)cc2)CC(=O)N1 (stereo not given)
3. CS(=O)(=O)CCNCc1coc(-c2ccc3ncnc(Nc4ccc(OCc5ccccc5)cc4)c3c2)c1
4. CCn1c(-c2nonc2N)nc2ccccc21
5. [O-][S+]1CCN(Cc2ccc(-c3ccc4ncnc(Nc5ccc(OCc6cccc(F)c6)c(Cl)c5)c4c3)o2)CC1

2.45
5.41
2.91
0.63
18.8

For each listed entry, give its inhibition.
1. CCN1CCC(CC(=O)Nc2n[nH]c3nnc(-c4cccc(F)c4F)cc23)CC1
2. CC(C)COC(=O)c1ccc2c(c1)/C(=C/Nc1ccc(S(N)(=O)=O)cc1)C(=O)N2
3. CC(=O)Nc1cccc(C#Cc2cncnc2Nc2ccc(OCc3cccc(F)c3)c(Cl)c2)c1
4. N#Cc1c(NC(=O)CN2CCOCC2)sc2c1CCCC2
5. FC(F)(F)c1cccc(-c2nn3ncccc3c2-c2ccnc(Nc3ccc4c(c3)OCCO4)n2)c1
6. COc1ccc2[nH]c3c4[nH]c5ccc(OC)cc5c4c4c(c3c2c1)C(=O)NC4=O
7. CN1CCC(n2cnc(-c3ccc(F)cc3)c2-c2ccnc(Nc3ccccc3)n2)CC1
8. COc1cc(Nc2nccc(Nc3ccc4c(C)n[nH]c4c3)n2)cc(OC)c1OC

[1.73, 17, 0.81, 3.91, 22.9, 63.7, 2.25, 27.9]

For each listed entry, give its inhibition.
1. Fc1ccc(-c2nn3ncccc3c2-c2ccnc(Nc3ccc4c(c3)OCCO4)n2)cc1
2. COc1cc(N2CCN(C(C)C)CC2)ccc1Nc1nc(Nc2ccc(F)cc2C(N)=O)c2cc[nH]c2n1
3. Cc1ccc2c(-c3ccnc(Nc4ccccc4)n3)c(-c3ccc(F)cc3)nn2n1
4. COc1cccc(-c2c[nH]c3c(N/N=C/c4ccncc4)ncnc23)c1
5. Cc1cccc2c1NC(=O)/C2=N\Nc1ccc(S(N)(=O)=O)cc1
6. CNC(=O)c1cccc(C#Cc2cncnc2Nc2ccc(OCc3cccc(F)c3)c(Cl)c2)c1

24.8
2.95
25.6
38
1.39
1.74

* * *

Test system: Mast/stem cell growth factor receptor Kit (Homo sapiens), P10721 [D816V]
Sequence (P10721 whole entry D816V): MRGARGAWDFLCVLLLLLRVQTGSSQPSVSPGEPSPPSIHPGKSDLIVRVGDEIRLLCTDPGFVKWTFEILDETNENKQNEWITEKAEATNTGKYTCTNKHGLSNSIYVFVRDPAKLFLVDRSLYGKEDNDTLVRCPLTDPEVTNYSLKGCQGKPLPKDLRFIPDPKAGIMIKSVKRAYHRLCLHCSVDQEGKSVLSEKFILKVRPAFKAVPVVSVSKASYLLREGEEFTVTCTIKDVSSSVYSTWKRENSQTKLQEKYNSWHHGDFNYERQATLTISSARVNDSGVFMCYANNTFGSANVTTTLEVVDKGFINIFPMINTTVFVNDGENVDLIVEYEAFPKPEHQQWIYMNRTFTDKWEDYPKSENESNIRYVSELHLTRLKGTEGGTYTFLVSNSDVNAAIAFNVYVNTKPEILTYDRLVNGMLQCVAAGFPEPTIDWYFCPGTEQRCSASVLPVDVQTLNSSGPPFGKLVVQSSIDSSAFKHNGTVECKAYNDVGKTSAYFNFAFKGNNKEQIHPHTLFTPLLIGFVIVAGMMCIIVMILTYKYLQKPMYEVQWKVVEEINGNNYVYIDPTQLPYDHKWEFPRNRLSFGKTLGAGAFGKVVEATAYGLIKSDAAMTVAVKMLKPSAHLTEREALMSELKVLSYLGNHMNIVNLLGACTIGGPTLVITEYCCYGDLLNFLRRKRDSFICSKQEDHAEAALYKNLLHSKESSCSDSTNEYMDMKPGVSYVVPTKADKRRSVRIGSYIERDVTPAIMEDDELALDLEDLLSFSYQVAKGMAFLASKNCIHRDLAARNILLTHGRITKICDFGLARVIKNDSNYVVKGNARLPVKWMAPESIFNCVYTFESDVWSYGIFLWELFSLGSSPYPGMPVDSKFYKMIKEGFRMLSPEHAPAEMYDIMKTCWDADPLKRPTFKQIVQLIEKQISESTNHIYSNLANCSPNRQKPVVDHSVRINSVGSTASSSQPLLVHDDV
run_parameters: at 0.1 µM
Task for the reader: assign each of the following compounds its reported inhibition.
Give bare numbers, in %.

Answered examples (10):
O=C(Nc1n[nH]c2cc(-c3ccc(F)cc3)ccc12)C1CC1 :: 3.06
[O-][S+]1CCN(Cc2ccc(-c3ccc4ncnc(Nc5ccc(OCc6cccc(F)c6)c(Cl)c5)c4c3)o2)CC1 :: 6.9
COc1cc(/C=N/Nc2ncnc3[nH]ncc23)ccc1O :: 8.85
CCCN1CCC(c2ccc(Nc3nc(Nc4cc(F)ccc4C(N)=O)c4cc[nH]c4n3)c(OC)c2)CC1 :: 7.89
COc1cc(Nc2nccc(Nc3ccc4c(C)n[nH]c4c3)n2)cc(OC)c1OC :: 10.8
N#Cc1c(NC(=O)c2ccc(F)cc2)sc2c1CCCC2 :: -0.47
Nc1ncc(-c2cccc(S(N)(=O)=O)c2)c2scc(-c3ccc(F)c(Cl)c3)c12 :: -0.67
c1ccc(-c2nc3n(c2-c2ccc4c(c2)OCO4)CCC3)nc1 :: 2.63
COc1cc(N2CCN(C(C)C)CC2)ccc1Nc1nc(Nc2ccc(F)cc2C(N)=O)c2cc[nH]c2n1 :: -1.16
COc1ccc(-c2nn3ncccc3c2-c2ccnc(Nc3ccc4c(c3)OCCO4)n2)cc1 :: -1.73

For each listed entry, give its inhibition.
1. NS(=O)(=O)c1ccc(N/N=C2\C(=O)Nc3ccc4ncccc4c32)cc1
2. CN1CCC(n2cnc(-c3ccc(F)cc3)c2-c2ccnc(Nc3ccccc3)n2)CC1
3. O=S(=O)(CCNCc1ccc(-c2ccc3ncnc(Nc4ccc(OCc5cccc(F)c5)c(Cl)c4)c3c2)o1)c1ccccc1
4. Cc1cccc2c1NC(=O)/C2=N\Nc1ccc(S(N)(=O)=O)cc1
5. Cc1cccc(Nc2ncc(-c3ccccc3)o2)c1

[5.95, 1.84, 3.44, 1.59, 1.52]

For each listed entry, give its inhibition.
1. COc1ccc2c(-c3ccnc(Nc4cccc(OC(F)(F)F)c4)n3)cnn2n1
2. CC(C)COC(=O)c1ccc2c(c1)/C(=C/Nc1ccc(S(N)(=O)=O)cc1)C(=O)N2
3. CN1CCC(n2cnc(-c3ccc(F)cc3)c2-c2ccnc(N)n2)CC1
4. COc1ccc(-c2oc3ncnc(N)c3c2-c2ccc(NC(=O)Nc3cc(C(F)(F)F)ccc3F)cc2)cc1
5. COc1ccc2[nH]c3c4[nH]c5ccc(OC)cc5c4c4c(c3c2c1)C(=O)NC4=O

1: 7.04; 2: 2.4; 3: 5.49; 4: 2.85; 5: 31.6
